Target: Adenosine receptor A1 (Homo sapiens) (UniProt P30542)
Sequence (P30542 whole entry): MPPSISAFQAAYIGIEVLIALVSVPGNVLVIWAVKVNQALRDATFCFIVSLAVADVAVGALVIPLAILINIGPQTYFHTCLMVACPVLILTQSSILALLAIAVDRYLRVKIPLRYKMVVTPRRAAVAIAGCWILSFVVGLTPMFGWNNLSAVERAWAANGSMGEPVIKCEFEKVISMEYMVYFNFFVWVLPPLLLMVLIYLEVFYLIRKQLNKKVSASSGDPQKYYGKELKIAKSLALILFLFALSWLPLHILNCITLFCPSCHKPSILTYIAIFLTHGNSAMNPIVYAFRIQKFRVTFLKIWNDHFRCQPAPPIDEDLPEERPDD
Assay: Effect on forskolin-induced cAMP levels at human A1 adenosine receptor compared to CPA (full agonist, 100% inhibition) and DPCPX(full inverse agonist, 100% stimulation)
Assay type: functional

- Compound Structure: "N#Cc1c(N)nc(SCCO)c(C#N)c1-c1cccc(C(F)(F)F)c1"
  Change in cAMP [%]: 85
- Compound Structure: "COc1ccc(-c2c(C#N)c(N)nc(SCCO)c2C#N)cc1"
  Change in cAMP [%]: -16
- Compound Structure: "CCCn1c(=O)c2[nH]c(C3CCCC3)nc2n(CCC)c1=O"
  Change in cAMP [%]: 100
- Compound Structure: "N#Cc1c(N)nc(SCCO)c(C#N)c1-c1ccccc1"
  Change in cAMP [%]: -72
- Compound Structure: "N#Cc1c(N)nc(SCCO)c(C#N)c1-c1ccc(C(F)(F)F)cc1"
  Change in cAMP [%]: 48
- Compound Structure: "N#Cc1c(N)nc(SCCO)c(C#N)c1-c1ccc(OC(F)(F)F)cc1"
  Change in cAMP [%]: 12
- Compound Structure: "COc1cccc(-c2c(C#N)c(N)nc(SCCO)c2C#N)c1"
  Change in cAMP [%]: -58
- Compound Structure: "N#Cc1c(N)nc(SCCO)c(C#N)c1-c1ccc(O)cc1"
  Change in cAMP [%]: -93
- Compound Structure: "N#Cc1c(N)nc(SCCO)c(C#N)c1-c1cccc(F)c1"
  Change in cAMP [%]: -102

* * *

Molecular target: Adenosine receptor A3 (Homo sapiens)
Test: Percent displacement of [125I]AB-MECA binding to human adenosine A3 receptor expressed in HEK 293 cells at 1 uM
Assay type: cell-based
Settings: HEK293
Below, each entry is listed with its recorded Displacement.

- Compound Structure: "COc1cccc(-c2c(C#N)c(N)nc(SCCO)c2C#N)c1"
  Assay System: "Adenosine receptor A3 (Homo sapiens)"
  Displacement: "18%"
- Compound Structure: "Cc1ccc(-c2c(C#N)c(N)nc(SCCO)c2C#N)cc1"
  Assay System: "Adenosine receptor A3 (Homo sapiens)"
  Displacement: "0%"
- Compound Structure: "N#Cc1c(N)nc(SCCO)c(C#N)c1-c1ccc(OC(F)(F)F)cc1"
  Assay System: "Adenosine receptor A3 (Homo sapiens)"
  Displacement: "10%"
- Compound Structure: "CN(C)c1ccc(-c2c(C#N)c(N)nc(SCCO)c2C#N)cc1"
  Assay System: "Adenosine receptor A3 (Homo sapiens)"
  Displacement: "7%"
- Compound Structure: "Cc1cccc(-c2c(C#N)c(N)nc(SCCO)c2C#N)c1"
  Assay System: "Adenosine receptor A3 (Homo sapiens)"
  Displacement: "5%"
- Compound Structure: "N#Cc1c(N)nc(SCCO)c(C#N)c1-c1ccc2c(c1)OCO2"
  Assay System: "Adenosine receptor A3 (Homo sapiens)"
  Displacement: "13%"
- Compound Structure: "COc1ccc(-c2c(C#N)c(N)nc(SCCO)c2C#N)cc1"
  Assay System: "Adenosine receptor A3 (Homo sapiens)"
  Displacement: "21%"

* * *

Biological target: Adenosine receptor A2a (Homo sapiens)
Test: Percent displacement of [3H]-ZM 241385 binding to human adenosine A2A receptor expressed in CHO cells at 1 uM
Format: cell-based
Property: Displacement (%)

- Compound Structure: "N#Cc1c(N)nc(SCCO)c(C#N)c1-c1ccc(C(F)(F)F)cc1"
  Result Unit: "%"
  Result Number: 13
- Compound Structure: "Cc1cccc(-c2c(C#N)c(N)nc(SCCO)c2C#N)c1"
  Result Unit: "%"
  Result Number: 29
- Compound Structure: "N#Cc1c(N)nc(SCCO)c(C#N)c1-c1cccc(OC(F)(F)F)c1"
  Result Unit: "%"
  Result Number: 3
- Compound Structure: "CN(C)c1ccc(-c2c(C#N)c(N)nc(SCCO)c2C#N)cc1"
  Result Unit: "%"
  Result Number: 0
- Compound Structure: "N#Cc1c(N)nc(SCCO)c(C#N)c1-c1cccc(C(F)(F)F)c1"
  Result Unit: "%"
  Result Number: 22
- Compound Structure: "N#Cc1c(N)nc(SCCO)c(C#N)c1-c1ccc(O)cc1"
  Result Unit: "%"
  Result Number: 37
- Compound Structure: "N#Cc1c(N)nc(SCCO)c(C#N)c1-c1ccc(OC(F)(F)F)cc1"
  Result Unit: "%"
  Result Number: 0
- Compound Structure: "COc1ccc(-c2c(C#N)c(N)nc(SCCO)c2C#N)cc1OC"
  Result Unit: "%"
  Result Number: 25
- Compound Structure: "N#Cc1c(N)nc(SCCO)c(C#N)c1-c1cccc(F)c1"
  Result Unit: "%"
  Result Number: 19
- Compound Structure: "COc1ccc(-c2c(C#N)c(N)nc(SCCO)c2C#N)cc1"
  Result Unit: "%"
  Result Number: 8
- Compound Structure: "N#Cc1c(N)nc(SCCO)c(C#N)c1-c1cccc(OC(F)F)c1"
  Result Unit: "%"
  Result Number: 8
- Compound Structure: "N#Cc1c(N)nc(SCCO)c(C#N)c1-c1ccc2c(c1)OCO2"
  Result Unit: "%"
  Result Number: 33
- Compound Structure: "N#Cc1c(N)nc(SCCO)c(C#N)c1-c1ccccc1"
  Result Unit: "%"
  Result Number: 23
- Compound Structure: "N#Cc1c(N)nc(SCCO)c(C#N)c1-c1ccc(OC(F)F)cc1"
  Result Unit: "%"
  Result Number: 0
- Compound Structure: "COc1cccc(-c2c(C#N)c(N)nc(SCCO)c2C#N)c1"
  Result Unit: "%"
  Result Number: 21
- Compound Structure: "N#Cc1c(N)nc(SCCO)c(C#N)c1-c1cccc(O)c1"
  Result Unit: "%"
  Result Number: 25
- Compound Structure: "N#Cc1c(N)nc(SCCO)c(C#N)c1-c1ccc(F)cc1"
  Result Unit: "%"
  Result Number: 4
- Compound Structure: "Cc1ccc(-c2c(C#N)c(N)nc(SCCO)c2C#N)cc1"
  Result Unit: "%"
  Result Number: 20

* * *

Target: Adenosine receptor A1 (Homo sapiens) (UniProt P30542)
Assay: Effect on forskolin-induced cAMP levels at human A1 adenosine receptor compared to CPA (full agonist, 100% inhibition) and DPCPX(full inverse agonist, 100% stimulation)
Type: functional
Catalogue of Change in cAMP values

- Compound Structure: "Cc1ccc(-c2c(C#N)c(N)nc(SCCO)c2C#N)cc1"
  Change in cAMP (%): -16
- Compound Structure: "N#Cc1c(N)nc(SCCO)c(C#N)c1-c1cccc(OC(F)(F)F)c1"
  Change in cAMP (%): 80
- Compound Structure: "Cn1cnc2c(NC3CCCC3)ncnc21"
  Change in cAMP (%): 72
- Compound Structure: "N#Cc1c(N)nc(SCCO)c(C#N)c1-c1cccc(O)c1"
  Change in cAMP (%): -105
- Compound Structure: "CN(C)c1ccc(-c2c(C#N)c(N)nc(SCCO)c2C#N)cc1"
  Change in cAMP (%): -65
- Compound Structure: "Cc1cccc(-c2c(C#N)c(N)nc(SCCO)c2C#N)c1"
  Change in cAMP (%): -78
- Compound Structure: "N#Cc1c(N)nc(SCCO)c(C#N)c1-c1ccc2c(c1)OCO2"
  Change in cAMP (%): -111
- Compound Structure: "N#Cc1c(N)nc(SCCO)c(C#N)c1-c1ccc(F)cc1"
  Change in cAMP (%): -51
- Compound Structure: "OC[C@H]1O[C@@H](n2cnc3c(NC4CCCC4)ncnc32)[C@H](O)[C@@H]1O"
  Change in cAMP (%): -100
- Compound Structure: "N#Cc1c(N)nc(SCCO)c(C#N)c1-c1cccc(OC(F)F)c1"
  Change in cAMP (%): 6
- Compound Structure: "N#Cc1c(N)nc(SCCO)c(C#N)c1-c1ccc(OC(F)F)cc1"
  Change in cAMP (%): 4

Where these numbers come from: ChEMBL document CHEMBL1145202
